Test system: MS2 coat protein
Experiment: apparent KD of MS2 coat protein; higher = weaker reporter binding
Conditions: Eterna round: R107; input ligand: arginine 13.2 mM
readout_kind: apparent KD of MS2 coat protein (nM)
Could you give me the number in nM? Just the number is fine.

Incoming: Reported apparent KD of MS2 coat protein for AUUGUCAAGUCGGCCGCCACUUCUGCCAUGGCCACCAGUCGACAUGAGGAUCACCCAUGUCUCUUAAGGACCGGGACUUUCAAUU [theeternabot_sameState_MS2_Trp_B_6] : what is it?
Outgoing: 13.1

Incoming: Reported apparent KD of MS2 coat protein for AGCACUGUGACGGCCGCCACUAUAUAUAGGGUGGUCAGGUUCAUAAUACAUGAGGAUCACCCAUGUAGGACCGGGUCUCAGUGCA [Omei Trp Exc B A v4] : what is it?
Outgoing: 14.5

Incoming: Reported apparent KD of MS2 coat protein for ACCUACACGGAAACGUGUAGAAGUAAUGAUACCAGCAUGGAAACAUGCCCUUGGCAGCGUUACAUGAGGAUCACCCAUGUAUGUU [#01 Exclusion-TheophyllineA] : what is it?
Outgoing: 16.4

Incoming: Reported apparent KD of MS2 coat protein for UAUACAUGGGAUACCAUGGAUCCGAGUGAUACCAGCUAUCCGAAUAGCCCUUGGCAGCACAGUACAUGAGGAUCACCCAUGUAUA [Theo A SS t5] : what is it?
Outgoing: 27.8

Incoming: Reported apparent KD of MS2 coat protein for UAUACAUGAGGAUCACCCAUGUGCCAUGAUACCAGACAUGAAAAUGUCCCUUGGCAGCAUGGGAGAUGUAUAGCGGGAAACCCGA [Turany] : what is it?
Outgoing: 22.4

Incoming: Reported apparent KD of MS2 coat protein for AAUAUCAUGAGGAUCACCCAUGAAGAAGAUACCAGAGUGAUGAUCCUCCCUUGGCAGCUUAACGCUGAUUGAUUACAAUCAGCGA : what is it?
Outgoing: 31.1

###

Test system: MS2 coat protein
Assay: apparent KD of MS2 coat protein, switch OFF state (with FMN for OFF switches, without FMN for ON switches); designed switch direction (-1 OFF switch, 1 ON switch): 1; higher = weaker reporter binding
Details: FMN input: 0 or 200 uM; Eterna round: R93 (includes R88 designs)
Label condition met when apparent KD of MS2 coat protein is at or above 40 nM; anything below gets condition not met.

Incoming: Given AACAAUCUAUCUGAGGAUAUGUGUCGAAAGACAUGAGGAUCACCCAUGUAAAAACAUGAAAAAUCACAGAAGGCAGAUAGAUUGA [SS2: 1144] , state whether its apparent KD of MS2 coat protein is at least 40 nM.
Outgoing: condition met

Incoming: Given AAAAAACAUGAGGAUCACCCAUGUAAAAAUAUCACAGGAUAUGGAAACACGAAAGUGAAACCAGAAGGGUGAAAAG [77%, Mat - Mod of Eli, 12] , state whether its apparent KD of MS2 coat protein is at least 40 nM.
Outgoing: condition met

Incoming: Given AAGAAACAUGAGGAUCACCCAUGUAAGAUAAACACAGGAUAUGCGAAAGAAAUAAAUAAAGCAGAAGGGUGAAGAA [Mat - Same State 1 - Tesla mod - D148] , state whether its apparent KD of MS2 coat protein is at least 40 nM.
Outgoing: condition met

Incoming: Given AUAAAAACGUAUGAGGAUAUCCAAAAUAAAACAUGAGGAUCACCCAUGUGAAUAAAAUAACAAUGGGAGAAGGCAUACGUAUCAU [SS 2 M 53] , state whether its apparent KD of MS2 coat protein is at least 40 nM.
Outgoing: condition not met

Incoming: Given GCGAAUAUGGGUUAGGAUAUGCGCGCAUGUACAUGAGGAUCACCCAUGUUUACGGGCGCCUUUGAGCAGAAGGAGCUAAUCAACGC [SameState2Try2_Neo] , state whether its apparent KD of MS2 coat protein is at least 40 nM.
Outgoing: condition not met
